Assay summary: Confirmatory qHTS for small molecule stabilizers of the endoplasmic reticulum resident proteome: Secreted ER Calcium Modulated Protein (SERCaMP) assay (AID 1508628); note: nearly all actives have a fitted effect of over 40% in size
Conditions used: SERCaMP secreted luciferase ER calcium/proteostasis reporter; series mostly up to 76.3 µM
From the text: Assay Provider: Brandon K. Harvey Ph.D. National Institute on Drug Abuse, National Institutes of Health, Baltimore, MD Endoplasmic reticulum (ER) dysregulation is associated with human pathologies including neurodegenerative, cardiovascular, muscular, and diabetic conditions. […] To identify such compounds, we performed a quantitative high-throughput screen (qHTS) using the SERCaMP assay, which monitors secretion of ER resident proteins triggered by calcium depletion. […]
Inconclusive results are not listed. Calls of active or inactive are those of the source. Calls come from the whole dose curve; as a rule, active = well fitted inhibition curve with a large enough effect; inconclusive = small, poorly fitted or top-dose-only effect; inactive = no such curve, though single readings can be large or run the other way.
Valid outcomes are listed here; reply with one: active, inactive

Request: // param item: N#CCCn1c(=O)c(-c2cc(F)cc(F)c2)nc2cnc(OCc3ccccc3)nc21 ; yields the recorded call
Response: active

Request: In this assay, the call recorded for COc1cccc(-c2nc(N3CCN(C)CC3)c3ccccc3n2)c1 was what?
Response: active

Request: How did this test come out for O=c1c(-c2ccc(F)cc2)nc2cnc(N3CCNCC3)nc2n1-c1ccccc1 ?
Response: inactive

Request: I would be grateful if you could indicate the recorded call for CN1CCN(c2ncnc3ccc(-c4ccccc4C#N)cc23)CC1 .
Response: inactive

Request: Hello, I am checking results. What call was entered for c1ccc2c(N3CCNCC3)nc(-c3ccc4c(c3)OCO4)nc2c1 ?
Response: active

Request: I would be grateful if you could indicate the recorded call for O=C(Nc1cccc(F)c1)N1CCC2(CC1)CCN(S(=O)(=O)c1ccccc1)CC2 .
Response: inactive

Request: // param item: CN1CCN(c2nc(-c3ccc(N(C)C)cc3)nc3ccccc23)CC1 ; yields the recorded call
Response: inactive

Request: I'd appreciate the recorded outcome for O=c1c(-c2ccccc2)nc2cnc(N3CCNCC3)nc2n1-c1ccccc1 from this test.
Response: inactive

Request: Outcome? COc1ccc(-n2c(=O)c(-c3cccc(C#N)c3)nc3cnc(N4CCNCC4)nc32)cc1
Response: active

Request: // param item: COc1ccccc1CNc1ncnc2ccc(-c3ccccc3CN(C)C)cc12 ; yields the recorded call
Response: active

Request: Which outcome was entered for the molecule Cc1ccccc1-c1nc(N2CCN(C)CC2)c2ccccc2n1 in this test?
Response: active

Request: Hi, do you know how CN(C)c1ncc2nc(CCc3ccccc3)c(=O)n(C[C@H]3CCCO3)c2n1 came out in this test?
Response: active

Request: I'd appreciate the recorded outcome for Cc1nc2cnc(N3CCN(C)CC3)nc2n(Cc2ccc(F)cc2)c1=O from this test.
Response: inactive

Request: Recorded test outcome, item CCNc1ncc2nc(CCc3ccccc3)c(=O)n(CCOC)c2n1
Response: active

Request: Please indicate how the test categorized CN1CCN(c2nc(-c3ccc4c(c3)OCO4)nc3ccccc23)CC1 .
Response: active

Request: Hi, do you know how Cc1nc2cnc(N3CCNCC3)nc2n(Cc2cccs2)c1=O came out in this test?
Response: active

###

Assay summary: Quantitative high throughput screen for delayed death inhibitors of the malarial parasite plastid, 96 hour incubation (AID 488745); note: nearly all actives have a fitted effect of over 70% in size
Conditions used: Plasmodium falciparum growth; series mostly up to 28.7 µM
Results filed as inconclusive are left out. The source made the active and inactive calls. The call rests on the fitted dose curve; in most records, active means well fitted inhibition curve with a large enough effect; inconclusive means small, poorly fitted or top-dose-only effect, or effect the other way; inactive means no such curve, though single readings can be large or run the other way.
In this exercise, the only acceptable responses are active, inactive

Request: Called result for COc1cc(=O)n(C)c2c(OCC(O)C(C)(C)O)cccc12 (stereo unspecified)
Response: inactive

Request: So what was the verdict on CCCC(=O)NCCc1c2n(c3ccc(OC)cc13)Cc1ccccc1-2 in this test?
Response: inactive

Request: For NCC1OC(O[C@@H]2[C@H](O)[C@@H](OC3C(O)C(N)CC(N)C3OC3OC(CO)C(O)C(O)C3N)O[C@@H]2CO)C(N)C(O)C1O (stereo partly specified) , which call appears in the assay record?
Response: inactive

Request: Recorded test call requested for Nc1ncnc2c1ncn2[C@@H]1O[C@H](C(=O)NC2CC2)[C@H](O)[C@H]1O
Response: inactive

Request: // return assay outcome for CC(C)CN(C)c1nc(N)c(C(=O)N=C(N)N)nc1Cl
Response: active

Request: Each compound tested received a call. Report the one for NC(=S)c1ccc[n+]([C@@H]2O[C@@H](COP(=O)([O-])OP(=O)(O)OC[C@H]3O[C@@H](n4cnc5c(N)ncnc54)[C@H](OP(=O)(O)O)[C@H]3O)C(O)C2O)c1 (stereo partly specified) .
Response: inactive

Request: Recorded call for N[C@H](Cc1ccc(O)c(O)c1)C(=O)O ?
Response: inactive

Request: In this assay, the call recorded for Nc1nc(SCc2ccc([N+](=O)[O-])cc2)c2ncn([C@@H]3O[C@H](CO)[C@H](O)[C@H]3O)c2n1 was what?
Response: inactive

Request: Call for entry CCCCC#Cc1nc(N)c2ncn([C@@H]3O[C@H](C(=O)NCC)[C@@H](O)[C@H]3O)c2n1 :
Response: active

Request: State the result this test recorded for N=C1Sc2ccccc2C2=NCCCN12 .
Response: inactive

Request: Please share the test call associated with CNC(=O)[C@H]1O[C@@H](n2cnc3c(NCc4cccc(I)c4)ncnc32)[C@H](O)[C@H]1O .
Response: inactive
